target: cGMP-specific 3',5'-cyclic phosphodiesterase (Homo sapiens, UniProt O76074); assay: Inhibitory activity against Phosphodiesterase 5 (PDE5) was evaluated
Would you mind telling me the reported Ki of each entry?
One number for each entry, in nM.

Worked set:
>  <compound>
O=C(O)c1ccc(-c2ccc(C(=O)N3Cc4c(nc5ccccc5c4O)C3c3ccc4c(c3)OCO4)o2)cc1 (stereo not given)

>  <targetOrSystem>
cGMP-specific 3',5'-cyclic phosphodiesterase (Homo sapiens, UniProt O76074)

>  <Ki (nM)>
1.01

$$$$
>  <compound>
O=C(c1cc2ccc(O)cc2o1)N1Cc2c(nc3ccccc3c2O)C1c1ccc2c(c1)CCO2 (stereo not given)

>  <targetOrSystem>
cGMP-specific 3',5'-cyclic phosphodiesterase (Homo sapiens, UniProt O76074)

>  <Ki (nM)>
1.74

$$$$
>  <compound>
O=C(c1ccc(-c2ccc([N+](=O)[O-])cc2)o1)N1Cc2c(nc3ccccc3c2O)C1c1ccc2c(c1)OCO2 (stereo not given)

>  <targetOrSystem>
cGMP-specific 3',5'-cyclic phosphodiesterase (Homo sapiens, UniProt O76074)

>  <Ki (nM)>
0.61

$$$$
>  <compound>
O=C(c1ccc(-c2ccc(CO)cc2)o1)N1Cc2c(nc3ccccc3c2O)C1c1ccc2c(c1)OCO2 (stereo not given)

>  <targetOrSystem>
cGMP-specific 3',5'-cyclic phosphodiesterase (Homo sapiens, UniProt O76074)

>  <Ki (nM)>
0.61

$$$$

Then there is this compound:
May I ask what Ki has been recorded for Cc1ccc(-c2ccc(C(=O)N3Cc4c(nc5ccccc5c4O)C3c3ccc4c(c3)OCO4)o2)cc1 (stereo not given) ?
2.64

These data points were gathered from ChEMBL document CHEMBL1145958.
